Some molecules, each annotated with its measured EC50.
Target or system: human liver GK (GST-hLGK1) (Homo sapiens)
Construct: with a BamHI site added to immediately before the initiation codon; made in house; host or cells: Escherichia coli BL21 (Stratagene), plasmid pGEX6P-2/hLGK1
Sequence (P35557 1-464 isoform P35557-3): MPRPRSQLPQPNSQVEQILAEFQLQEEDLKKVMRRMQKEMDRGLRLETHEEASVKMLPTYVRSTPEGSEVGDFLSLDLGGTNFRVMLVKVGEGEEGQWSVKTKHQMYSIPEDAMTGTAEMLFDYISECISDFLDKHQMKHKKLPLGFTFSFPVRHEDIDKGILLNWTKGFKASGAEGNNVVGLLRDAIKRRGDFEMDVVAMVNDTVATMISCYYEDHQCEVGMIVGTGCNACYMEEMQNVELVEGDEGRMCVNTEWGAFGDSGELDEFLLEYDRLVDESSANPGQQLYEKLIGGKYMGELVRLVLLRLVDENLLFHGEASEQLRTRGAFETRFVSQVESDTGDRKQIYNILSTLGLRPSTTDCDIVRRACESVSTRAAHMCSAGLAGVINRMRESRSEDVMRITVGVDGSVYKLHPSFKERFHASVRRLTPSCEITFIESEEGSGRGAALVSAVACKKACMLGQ
Test protocol: Measurement of GK activation value
Format: biochemical
Condition notes: GST-hLGK1 6 μg/mL, 5 mmol/L D-glucose, 50 μmol/L Mant-ATP, 60 min at 37° C.; concentration at midpoint between maximum activity value and control activity value

{"Molecule": "CS(=O)(=O)c1ccc(Oc2cc(OCc3cccc(Cl)n3)c3[nH]c(C4=NCC(CC(=O)O)S4)cc3c2)cc1 (centres unmarked)", "EC50": "42 nM"}
{"Molecule": "CC(CO)Oc1cc(Oc2ccc(S(C)(=O)=O)cc2)cc2cc(C3=NCC(CC(N)=O)S3)[nH]c12 (centres unmarked)", "EC50": "48 nM"}
{"Molecule": "CC(CO)Oc1cc(Oc2ccc(S(C)(=O)=O)cc2)cc2cc(C3=NCC(CCO)S3)[nH]c12 (centres unmarked)", "EC50": "33 nM"}
{"Molecule": "COc1cc(Oc2ccc(S(C)(=O)=O)nc2)cc2cc(C3=NCC(CC(=O)N4CCOCC4)S3)[nH]c12 (centres unmarked)", "EC50": "42 nM"}
{"Molecule": "COc1cc(Oc2ccc(S(C)(=O)=O)nc2)cc2cc(C3=NCC(CC(=O)NC[C@@H](C)O)S3)[nH]c12 (some centres unmarked)", "EC50": "38 nM"}
